# Tested on: Plasmodium berghei
# ASSAY REMARKS: Screen against P. berghei liver stage (PbLuc), transformed with Luciferase, at 10uM
# Format: functional, HepG2
# PROTOCOL CONDITIONS: tested at 10 uM
Among all 69,000 compounds or so, about 8,600 (12%) showed an effect of 50% or more. This is one part of a sample in which strong results are shown more often than they occur.
READOUT KIND: INHIBITION (%)

MOLECULE	READOUT KIND	QUANTITATIVE RESULT
COc1cc2c(nn1)CCN(Cc1noc(CC(C)C)n1)C2	INHIBITION	17.4
CC(C(N)=O)N1CCc2onc(-c3cccc(F)c3)c2C1 (stereo unspecified)	INHIBITION	18.2
Cc1noc(CN(Cc2ccco2)Cc2cccc3c2OCO3)n1	INHIBITION	30.3
CC(C)(C)c1nc(CN2CCc3onc(-c4cccc(F)c4)c3C2)no1	INHIBITION	67.7
CN(C)c1ccc(CN2C[C@@H]3CC[C@H]2CN(C2CCOCC2)C3)cn1	INHIBITION	53.5
O=C(CCc1ccccn1)NC1CCN(c2cccc(Cl)c2)C1 (stereo unspecified)	INHIBITION	46.4
O=C(CCc1ccccn1)NC1CCCN(C2Cc3ccccc3C2)C1 (stereo unspecified)	INHIBITION	51.1
CN(C(=O)c1cc(F)ccc1F)[C@@H]1CC[C@@H](O)[C@@H]1O	INHIBITION	2.55
Cn1cccc1C1CCCN1Cc1noc(C(C)(C)C)n1 (stereo unspecified)	INHIBITION	-40.5
CCC(=O)N1CCC(NCc2cc(C(F)(F)F)ccc2Cl)C1 (stereo unspecified)	INHIBITION	42.6
CCc1nc(CN2CCN(C(=O)C3(C#N)CCCCC3)CC2)cs1	INHIBITION	-9.37
CCN1C(=O)C2(CCOCC2)c2cc(NC(=O)COC)ccc21	INHIBITION	-19.8
CCOCCN1CCN(Cc2cccc(C(=O)N(C)C)c2)CC1CC (stereo unspecified)	INHIBITION	25.6
CC(C)c1nc(CN2CCc3onc(-c4cccc(F)c4)c3C2)no1	INHIBITION	84.1
COc1ccccc1OC1CCN(C(=O)CCCN2CCOCC2)CC1	INHIBITION	23.8
C[C@]1(O)CN(Cc2ncc[nH]2)CC[C@@H]1Oc1cccc(F)c1	INHIBITION	61.9
Cn1nc2c(cc1=O)CN(c1nc3ccccc3s1)CC2	INHIBITION	-80.7
Cc1nnc(CN(Cc2cccc3c2OCO3)CC2CCCO2)n1C (stereo unspecified)	INHIBITION	-31.5
COc1ccc(C(=O)NC2CC2)c(OC)c1	INHIBITION	23.6
Cc1cc(C2CCCCN2C(=O)CN2C(=O)OC(C)(C)C2=O)no1 (stereo unspecified)	INHIBITION	47.2
CNc1nc(CNC(=O)Nc2ccccc2C(F)(F)F)cs1	INHIBITION	19.4
C[C@]1(O)CN(Cc2ncccc2F)CC[C@@H]1Oc1cccc(F)c1	INHIBITION	50.1
Cc1nc(C)c(C(=O)N2CCc3nnc(C4CCCCN4C)n3CC2)s1 (stereo unspecified)	INHIBITION	-12.4
COCC(=O)N1CCCN(c2ncnc3c2CCNCC3)CC1	INHIBITION	11.7
CN(C)S(=O)(=O)N1CC[C@]2(O)CCN(c3nc4ccccc4s3)C[C@@H]2C1	INHIBITION	11.3
CCC(C)(C)N(C)CCOc1cccc(S(C)(=O)=O)c1	INHIBITION	23.2
CCSc1ncc(CN2C[C@@H]3CC[C@H]2CN(C2CCOCC2)C3)cn1	INHIBITION	48.5
CCN(Cc1ccc2cccc(O)c2n1)CC1CCCO1 (stereo unspecified)	INHIBITION	-13.5
CC(C(=O)N(C)C)N1CCc2onc(-c3cccc(F)c3)c2C1 (stereo unspecified)	INHIBITION	40.9
CC1CC(=O)c2cc(C(=O)N3CCOCC3)c(=O)[nH]c2C1 (stereo unspecified)	INHIBITION	13.9
CC(C)Nc1ccc2c(c1)C1(CCOCC1)C(=O)N2c1ccsc1	INHIBITION	52.3
Cc1cccnc1CN1CC[C@H](Oc2cccc(F)c2)[C@@](C)(O)C1	INHIBITION	75.3
O=C(C1CCOC1)N1CCN(CCn2cccn2)c2ncccc2C1 (stereo unspecified)	INHIBITION	11.3
COc1ccc(C(=O)NC2CC2)c(OC2CCN(C(C)CO)CC2)c1 (stereo unspecified)	INHIBITION	76.6
Cc1nccc(CN2CC[C@H](Oc3cccc(F)c3)[C@@](C)(O)C2)n1	INHIBITION	38.7
Cc1ncnc(N2CCCN(c3nc4ccccc4s3)CC2)c1C	INHIBITION	89.6
c1ccc2sc(N3CCCN(c4ncnc5c4CCNC5)CC3)nc2c1	INHIBITION	74.5
c1ccc2sc(N3CCN(c4ncnc5c4CCC5)CC3)nc2c1	INHIBITION	79.9
Cc1cc(C(=O)N2CCN(c3nc4ccccc4s3)CC2)no1	INHIBITION	36.8
Fc1cccc(-c2noc3c2CN(Cc2cncn2C2CC2)CC3)c1	INHIBITION	33.3
Cn1ncc(CN2CCc3onc(-c4cccc(F)c4)c3C2)c1C1CC1	INHIBITION	41.5
CC1CN(C)CCN1CC(=O)NCCOc1ccc(Cl)cc1 (stereo unspecified)	INHIBITION	35.95
CN(CCOc1cccc(S(C)(=O)=O)c1)CC(F)F	INHIBITION	31.1
O=C(c1cc[nH]n1)N1CC[C@@H]2CN(Cc3cccnc3)S(=O)(=O)[C@@H]2CC1	INHIBITION	76.4
C[C@]1(O)CN(Cc2cscn2)CC[C@@H]1Oc1cccc(F)c1	INHIBITION	38.2
CC(C)Cc1nc(CN2CCc3onc(-c4cccc(F)c4)c3C2)no1	INHIBITION	82.5

----------
// reported INHIBITION per item
# System: Plasmodium berghei
# ASSAY REMARKS: Screen against P. berghei liver stage (PbLuc), transformed with Luciferase, at 10uM
# Type: functional, HepG2
# PROTOCOL CONDITIONS: tested at 10 uM
In all, about 69,000 compounds went through this assay and about 8,600 (12%) showed an effect of 50% or more. Shown is part of a subset that was picked to be rich in strong results.

COMPOUND	INHIBITION
COc1cc(CNC(C)Cn2cccn2)cc2c1OCO2 (centres undefined)	12.6%
Cc1cccc(S(=O)(=O)N2C[C@@H]3C[C@H](C(=O)N(C)C)[C@H](C2)O3)c1	42.3%
COCCC(=O)N1CCC2(CN(Cc3ccc(OC)c(F)c3)C2)C1	-44.8%
Cn1cc(CN2C[C@@H](NC(=O)c3cscn3)[C@H]3OCCC[C@H]32)cn1	-4.88%
CCc1nc(NCCc2nc(C)c(C)s2)c2cnn(C)c2n1	27.6%
Cn1nc(Cn2cccn2)c2c1CN(C1CCOC1)C2 (centres undefined)	-4.02%
COC(=O)CCC(=O)N1CCC2(CN(Cc3ccccc3)C2)C1	5.56%
COCCCn1ccnc1-c1cnc(OC)nc1	10.1%
CCCc1nc(N[C@H]2COC[C@@H]2N2CCCCC2)c2cnn(C)c2n1	-19.8%
Cn1ccnc1-c1nccn1C[C@@H]1CCCN2CCCC[C@H]12	12%
Cc1c(Br)cccc1S(=O)(=O)NCc1ccnn1C	37.1%
COc1ccc(-c2nccn2C[C@@H]2CCCN3CCCC[C@H]23)cc1	65.3%
COC(=O)CCC(=O)N1CCC2(CN(Cc3ccc(Cl)cc3)C2)C1	-26.1%
NC(=O)c1cn(CC2CCC2)c(C2CC2)n1	-21.8%
CCOC(=O)COc1ccc(C(C)=O)c(O)c1	38.2%
Cc1cnc2c(C(=O)N3CCCC(OCc4ccccn4)C3)cnn2c1 (centres undefined)	37.9%
COCCC(=O)N1CCC2(CCN(Cc3cccc(F)c3)CC2)C1	49.7%
COCCC(=O)N1CC2(CCN(Cc3cccc(Cl)c3)CC2)C1	15.9%
c1cnc2c(-c3nccn3C[C@@H]3CCCN4CCCC[C@H]34)cccc2c1	20.2%
CCc1ccc(C(=O)N2CCCC2c2c(C)nn(C)c2OC)o1 (centres undefined)	-11.2%
COCCC(=O)N1CCC2(CCN(Cc3cccc(F)c3)C2)C1 (centres undefined)	57.9%
CCc1noc(CN2CCN(Cc3cccs3)CC2)n1	3.73%
CC(=O)NC[C@]1(O)CCN(C(=O)c2ccc(F)c(Cl)c2)C[C@H]1O	18.9%
CCc1nc(NCCc2c(C)nn(CC)c2C)c2cnn(C)c2n1	65.7%

----------
# System: Plasmodium berghei
# ASSAY REMARKS: Screen against P. berghei liver stage (PbLuc), transformed with Luciferase, at 10uM
# Assay type: functional, HepG2
# PROTOCOL CONDITIONS: tested at 10 uM
Among all 69,000 compounds or so, about 8,600 (12%) showed an effect of 50% or more. The sample as a whole holds a higher share of strong results than the screen did.

COMPOUND	UNIT ABBREV	INHIBITION
CSc1cc2c(cc1NC(=O)NCc1ccncc1)OCCO2	%	8.4
CC(C)N(C)Cc1nnc2n1CCCN(c1ncccn1)C2	%	29.5
CSc1cc2c(cc1NC(=O)NCC1CCOC1)OCCO2 (stereo unspecified)	%	67.3
CSc1cc2c(cc1NC(=O)NCC(=O)N(C)C)OCCO2	%	35.9
COCCN(C)C(=O)Nc1cc2c(cc1SC)OCCO2	%	-34
CC(NC(=O)NCCn1ccnc1)c1ccc2c(c1)OCCO2 (stereo unspecified)	%	31.8
